# tested_system: T1, Recombinant human glypican-3 (aa 1-559), His-tagged, R&D Systems (human, UniProt P51654 25-559)
# T1 construct: also called huGPC3; Hu GPC3-His
# T1 sequence (P51654 other isoform, or with tags, fused parts or gaps): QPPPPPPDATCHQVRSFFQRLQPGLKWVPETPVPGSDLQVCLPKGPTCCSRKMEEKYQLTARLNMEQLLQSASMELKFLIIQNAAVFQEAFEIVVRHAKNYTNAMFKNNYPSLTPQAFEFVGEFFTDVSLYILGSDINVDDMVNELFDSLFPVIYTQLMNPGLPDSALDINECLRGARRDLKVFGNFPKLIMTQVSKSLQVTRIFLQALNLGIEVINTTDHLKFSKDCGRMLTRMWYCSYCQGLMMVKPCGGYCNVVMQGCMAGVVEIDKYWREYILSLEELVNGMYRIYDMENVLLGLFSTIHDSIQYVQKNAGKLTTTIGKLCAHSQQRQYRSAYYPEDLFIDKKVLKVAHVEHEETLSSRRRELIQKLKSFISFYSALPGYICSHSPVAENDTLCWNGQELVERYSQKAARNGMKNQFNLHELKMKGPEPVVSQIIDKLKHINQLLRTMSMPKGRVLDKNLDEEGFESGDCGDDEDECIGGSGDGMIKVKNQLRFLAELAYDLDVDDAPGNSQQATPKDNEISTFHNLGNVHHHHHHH
# experiment_summary: SPR, Biacore T100, GPC3-His immobilised, 1:1 fit
reported_endpoint: kon (M⁻¹ s⁻¹)

• ADX_6077_F02 DG→EG mutant, alkylated (designed binder, C-terminal cysteine alkylated, also called P1-055673) GVSDVPRDLEVVAATPTSLLISWSDDYHAHRYYRITYGETGGNSPVQEFTVPGEHVTATISGLKPGVDYTITVYAVTYEGEKAATDWSISINYRTPC = 76300
• ADX_6077_F02 DG→DA mutant, alkylated (designed binder, C-terminal cysteine alkylated, also called P1-055660; PI-055660) GVSDVPRDLEVVAATPTSLLISWSDDYHAHRYYRITYGETGGNSPVQEFTVPGEHVTATISGLKPGVDYTITVYAVTYDAEKAATDWSISINYRTPC = 72200
• ADX_6077_F02 alkylated (designed binder, C-terminal cysteine (of PC) alkylated with iodoacetamide, also called alkylated (capped) Adnectin; alkylated parent) MGVSDVPRDLEVVAATPTSLLISWSDDYHAHRYYRITYGETGGNSPVQEFTVPGEHVTATISGLKPGVDYTITVYAVTYDGEKAATDWSISINYRTPCHHHHHH = 95300
• ADX_6077_F02 DG→SG mutant, alkylated (designed binder, C-terminal cysteine alkylated, also called P1-055668) VSDVPRDLEVVAATPTSLLISWSDDYHAHRYYRITYGETGGNSPVQEFTVPGEHVTATISGLKPGVDYTITVYAVTYSGEKAATDWSISINYRTPC = 94000
